Where do these numbers come from? They come from patent US20260355357A1.

# assay.details: Biodistribution of deuterated 2-deoxy-D-glucose, 2H-NMR of tissue extracts, rats
# Type: in vivo, rat
# condition: [D4]DDG bolus i.v., 37-55 mg/kg (non-labeled 2DG equivalent), n=6; read-out: concentration in the muscle
readout.kind: concentration (µM)
Answers are plain numbers, in µM.

Qu. Tell us which concentration value is on record for [2H]C([2H])(O)[C@H]1OC(O)C[C@@]([2H])(O)[C@]1([2H])O (stereo partly drawn) [[D4]DDG, [3,4,6,6-D4]2-deoxy-D-glucose]
Ans. 80

---

# assay.details: Biodistribution of deuterated 2-deoxy-D-glucose, 2H-NMR of tissue extracts, rats
# Type: in vivo, rat
# condition: [D4]DDG bolus i.v., 37-55 mg/kg (non-labeled 2DG equivalent), n=6; read-out: concentration in the brain
readout.kind: concentration (µM)
One number for each entry, in µM.

Qu. Tell us which concentration value is on record for [2H]C([2H])(O)[C@H]1OC(O)C[C@@]([2H])(O)[C@]1([2H])O (stereo partly drawn) [[D4]DDG, [3,4,6,6-D4]2-deoxy-D-glucose]
Ans. 1600
